Molecular target: TDP-43 NTD S48E, residues 1-80 (UniProt Q13148)
Experiment: CG-MALS; composition gradient multi-angle light scattering, 20 mM HEPES pH 6.8, 150 mM NaCl, 1 mM DTT; isodesmic self-association model, each addition of a monomer
REPORTED_ENDPOINT: pKd
Give only the number. pKd is defined as minus log10 of concentration in molar units.

Summary for this binder, TDP-43 NTD S48E, residues 1-80 (domain or fragment, three additional N-terminal residues left by the cloning strategy and TEV cleavage; TDP-43 N-terminal domain, residues 1-80, phosphomimetic S48E; 15N-, 13C/15N-labelled or natural abundance, depending on the NMR experiment; also called S48E TDP-43 NTD; S48E 1-80 NTD; source: E. coli BL21 Star DE3, purified (Histrap, TEV cleavage, SEC); not shown: Thioredoxin, N-terminal, cleaved; His6, …) GHMMSEYIRVTEDENDEPIEIPSEDDGTVLLSTVTAQFPGACGLRYRNPVEQCMRGVRLVEGILHAPDAGWGNLVYVVNYPKD : pKd is 2.70
